Cited source for all entries: the supplement of paper PMC6897291

Quick reference for growth inhibition by drug alone among some compounds
- Tested on: RIVA
- testDescription: growth inhibition by drug alone (1 - RLU/untreated control) (fraction); higher = stronger inhibition
- particulars: 10 nM; time (day): 5; 177Lu-lilotomab satetraxetan 0 ug/ml
Structures can show the parent of a compound that is named as a salt.
assayMetric: growth inhibition by drug alone

- C[C@H](NC(=O)Cc1cc(F)cc(F)c1)C(=O)N[C@@H]1C(=O)N(C)c2ccccc2-c2ccccc21: -0.314
- COc1cc2c(cc1O)CC[C@@H]1[C@@H]2CC[C@]2(C)[C@@H](O)CC[C@@H]12: -0.405
- Cn1cnc(N)c2ncnc1-2: -0.0197
- C[C@]12CC[C@H](O)CC1=CC[C@@H]1[C@@H]2CC[C@]2(C)C(c3cccnc3)=CC[C@@H]12: -0.224
- CC[C@H](CO)Nc1nc(NCc2ccccc2)c2ncn(C(C)C)c2n1 [Roscovitine (Seliciclib, CYC202)]: 0.0188
- COC(=O)C1=C(C)NC(C)=C(C(=O)OCCCN2CCC(c3ccccc3)(c3ccccc3)CC2)[C@H]1c1cccc([N+](=O)[O-])c1 [S-(+)-Niguldipine hydrochloride]: -0.0555
- Cc1ccc(NC(=O)c2ccc(CN3CC[C@H](N(C)C)C3)c(C(F)(F)F)c2)cc1Nc1nccc(-c2cncnc2)n1: 0.191

###

- Tested on: RIVA
- testDescription: growth inhibition by drug plus 177Lu-lilotomab satetraxetan (1 - RLU/untreated control) (fraction); higher = stronger inhibition
- particulars: 100 nM; time (day): 3; 177Lu-lilotomab satetraxetan 0.5 ug/ml
Structures can show the parent of a compound that is named as a salt.
assayMetric: growth inhibition by drug plus 177Lu-lilotomab satetraxetan

- O=C(O)CCc1ccc(NCc2cccc(Oc3ccccc3)c2)cc1: 0.432
- O=C(c1cc(Cc2n[nH]c(=O)c3ccccc23)ccc1F)N1CCN(C(=O)C2CC2)CC1: 0.39
- C=CCc1cccc(/C=N/NC(=O)CN2CCN(Cc3ccccc3)CC2)c1O: 0.392
- COc1cc2ncnc(Nc3cccc(Br)c3)c2cc1OC: 0.349
- CC(C)C[C@H](NC(=O)CNC(=O)c1cc(Cl)ccc1Cl)B1OC(=O)C(CC(=O)O)(CC(=O)O)O1: 0.64
- COc1cccc2c1C(=O)c1c(O)c3c(c(O)c1C2=O)C[C@@](O)(C(C)=O)C[C@@H]3O[C@H]1C[C@H](N)[C@H](O)[C@H](C)O1 [Daunorubicin HCl (Daunomycin HCl)]: 0.87
- Oc1cccc(-c2nc(N3CCOCC3)c3oc4ncccc4c3n2)c1: 0.837
- OCCn1cc(-c2cnc3nnn(Cc4ccc5ncccc5c4)c3n2)cn1: 0.384
- CCCC(=O)[O-].[Na+] [Sodium butyrate]: 0.431

###

Quick reference for growth inhibition by drug alone among some compounds
- Tested on: RIVA
- testDescription: growth inhibition by drug alone (1 - RLU/untreated control) (fraction); higher = stronger inhibition
- particulars: 10 nM; time (day): 4; 177Lu-lilotomab satetraxetan 0 ug/ml
Structures can show the parent of a compound that is named as a salt.
assayMetric: growth inhibition by drug alone

* O=c1[nH]nc(Sc2ncc([N+](=O)[O-])s2)n1-c1ccc2c(c1)OCCO2 | -0.0273
* O=C(Nc1cccc(Cl)c1)Nc1ncc(CCNc2ncnc3ccsc23)s1 | 0.115
* C#Cc1cccc(Nc2ncnc3cc(OCCOC)c(OCCOC)cc23)c1 [Erlotinib HCl] | 0.233
* Cc1cnc(Nc2ccc(OCCN3CCCC3)cc2)nc1Nc1cccc(S(=O)(=O)NC(C)(C)C)c1 | -0.238
* CC[C@@]1(O)C(=O)OCc2c1cc1n(c2=O)Cc2cc3c(CN(C)C)c(O)ccc3nc2-1 [Topotecan HCl] | 0.629

###

- Test system: RIVA
- testDescription: growth inhibition by drug plus 177Lu-lilotomab satetraxetan (1 - RLU/untreated control) (fraction); higher = stronger inhibition
- particulars: 100 nM; time (day): 3; 177Lu-lilotomab satetraxetan 0.5 ug/ml
Quick reference for growth inhibition by drug plus 177Lu-lilotomab satetraxetan among some compounds
assayMetric: growth inhibition by drug plus 177Lu-lilotomab satetraxetan

* COc1cc2/c(=N/c3ccc(Br)cc3F)nc[nH]c2cc1OCC1CCN(C)CC1 [Vandetanib (Zactima)] | 0.268
* Nc1nc(OCc2cc(Br)cs2)c2[nH]cnc2n1 | 0.404
* Cc1cn(-c2cc(NC(=O)c3ccc(C)c(Nc4nccc(-c5cccnc5)n4)c3)cc(C(F)(F)F)c2)cn1 | 0.362
* COc1ccc(-c2ccc3c(N4CCOC[C@@H]4C)nc(N4CCOC[C@@H]4C)nc3n2)cc1CO | 0.749

###

- Test system: RIVA
- testDescription: growth inhibition by drug plus 177Lu-lilotomab satetraxetan (1 - RLU/untreated control) (fraction); higher = stronger inhibition
- particulars: 100 nM; time (day): 3; 177Lu-lilotomab satetraxetan 0.5 ug/ml
Lab note: compare growth inhibition by drug plus 177Lu-lilotomab satetraxetan against 0.4. Equal or greater, write true (1). Smaller, write false (0).

- C[S+]([O-])c1ccc(-c2nc(-c3ccc(F)cc3)c(-c3ccncc3)[nH]2)cc1 (stereo not given): false (0)
- O=C(/C=C/C#Cc1cccc(NS(=O)(=O)c2ccccc2)c1)NO [Oxamflatin]: true (1)
- Nc1cccc2c1CN(C1CCC(=O)NC1=O)C2=O (stereo not given) [Lenalidomide]: true (1)
- Cc1ccc([N+](=O)[O-])cc1S(=O)(=O)N(C)/N=C/c1cnc2ccc(Br)cn12: true (1)
- CN(NC(=O)CC(=O)NN(C)C(=S)c1ccccc1)C(=S)c1ccccc1 [Elesclomol]: true (1)
- Cc1cnc(Nc2ccc(OCCN3CCCC3)cc2)nc1Nc1cccc(S(=O)(=O)NC(C)(C)C)c1: false (0)
- CS(=O)(=O)c1cccc(CNc2nc(Nc3ccc4c(c3)CCC(=O)N4)ncc2C(F)(F)F)c1: false (0)
- COc1ccc(CCN(C)CCCOc2ccc(S(=O)(=O)c3c(C(C)C)n(C)c4ccccc34)cc2)cc1OC: true (1)
- COc1c(C)c2c(c(O)c1C/C=C(\C)CCC(=O)OCCN1CCOCC1)C(=O)OC2 [Mycophenolate mofetil (CellCept)]: true (1)
- O=C(NCCS(=O)(=O)c1ccc(C(F)(F)F)cn1)c1ccc(Cl)cc1: true (1)

###

- Test system: RIVA
- testDescription: growth inhibition by drug alone (1 - RLU/untreated control) (fraction); higher = stronger inhibition
- particulars: 100 nM; time (day): 3; 177Lu-lilotomab satetraxetan 0 ug/ml
assayMetric: growth inhibition by drug alone

- CC(C)n1nc(-c2ccc3oc(N)nc3c2)c2c(N)ncnc21: 0.716
- CC(=O)Nc1nc(C)c(-c2ccc(Cl)c(S(=O)(=O)NCCO)c2)s1: -0.0771
- CCCCCCCCc1ccc(CCC(N)(CO)CO)cc1 [Fingolimod (FTY720)]: -0.16
- CS(=O)(=O)N1CCN(Cc2cc3nc(-c4cccc5[nH]ncc45)nc(N4CCOCC4)c3s2)CC1: 0.604
- CN(N=O)C(=O)N[C@@H](C=O)[C@@H](O)[C@H](O)[C@H](O)CO [Streptozotocin (Zanosar)]: -0.291
- CNC(=O)c1ccc(C)c(-n2c(C)cc(OCc3ccc(F)cc3F)c(Br)c2=O)c1: -0.0302
- CC(C)(C)c1ccc(S(=O)(=O)/C=C/C#N)cc1: -0.0892
- COCC[n+]1c2c(n(Cc3cnccn3)c1C)C(=O)c1ccccc1C2=O: 0.98
- CS(=O)(=O)CCNCc1ccc(-c2ccc3ncnc(Nc4ccc(OCc5cccc(F)c5)c(Cl)c4)c3c2)o1 [Lapatinib Ditosylate (Tykerb)]: -0.283
- CS(=O)(=O)c1cccc(CNc2nc(Nc3ccc4c(c3)CCC(=O)N4)ncc2C(F)(F)F)c1: -0.0969
- Cc1cc(Nc2cc(N3CCN(C)CC3)nc(/C=C/c3ccccc3)n2)n[nH]1: -0.354
- O=C(O)C(Cc1c[nH]c2ccccc12)N1C(=O)c2ccccc2C1=O (centres undefined): -0.231
- COc1cc(Nc2ncc3c(n2)-c2ccc(Cl)cc2C(c2c(F)cccc2OC)=NC3)ccc1C(=O)O [MLN8237 (Alisertib)]: 0.624
- COc1ccc(-c2oc3cc(OC)ccc3c2C(=O)c2ccc(C#N)cc2)cc1: -0.0825
- COc1ccc(CCN(C)CCCOc2ccc(S(=O)(=O)c3c(C(C)C)n(C)c4ccccc34)cc2)cc1OC: -0.377
- N#Cc1ccc(C(c2ccc(C#N)cc2)n2cncn2)cc1 [Letrozole]: -0.0878
- Cc1nc(N)sc1-c1ccnc(Nc2ccc(N3CCOCC3)cc2)n1: -0.0826
- NC(=O)c1ccc(I)c([N+](=O)[O-])c1 [Iniparib (BSI-201)]: -0.378
- COc1ccccc1OCC(O)CN1CCN(CC(=O)Nc2c(C)cccc2C)CC1 (centres undefined) [Ranolazine (Ranexa)]: -0.11

###

Quick reference for growth inhibition by drug alone among some compounds
- Tested on: RIVA
- testDescription: growth inhibition by drug alone (1 - RLU/untreated control) (fraction); higher = stronger inhibition
- particulars: 100 nM; time (day): 5; 177Lu-lilotomab satetraxetan 0 ug/ml
Where a name gives a salt, the structure may show the parent alone.
assayMetric: growth inhibition by drug alone

* CNC(=O)c1ccc(C)c(-n2c(C)cc(OCc3ccc(F)cc3F)c(Br)c2=O)c1 | -0.127
* O=c1[nH]nc(Sc2ncc([N+](=O)[O-])s2)n1-c1ccc2c(c1)OCCO2 | -0.0833
* CCC(C)(C)C(=O)O[C@H]1C[C@@H](C)C=C2C=C[C@H](C)[C@H](CC[C@@H]3C[C@@H](O)CC(=O)O3)[C@H]21 [Simvastatin (Zocor)] | -0.115
* CCOC(=O)C1=C[C@]2(CC)CCCN3CCc4c(n1c1ccccc41)[C@@H]32 | -0.0621
* CCN(CC)CCCCNc1ncc2cc(-c3cc(OC)cc(OC)c3)c(NC(=O)NC(C)(C)C)nc2n1 | -0.379
* CO[C@H]1/C=C\C=C(/C)C(=O)NC2=CC(=O)C(NCCN(C)C)=C(C[C@@H](C)C[C@H](OC)[C@H](O)[C@@H](C)/C=C(\C)[C@@H]1OC(N)=O)C2=O [17-DMAG HCl (Alvespimycin)] | 0.961
* CC[C@H]1OC(=O)[C@H](C)[C@@H](O[C@H]2C[C@@](C)(OC)[C@@H](O)[C@H](C)O2)[C@H](C)[C@@H](O[C@@H]2O[C@H](C)C[C@H](N(C)C)[C@H]2O)[C@](C)(O)C[C@@H](C)CN(C)[C@H](C)[C@@H](O)[C@]1(C)O [Azithromycin (Zithromax)] | 0.0797
* CCOc1ccc(Nc2nc(-c3c(C)nc4ccccn34)cs2)cc1 | 0.951
* C[C@@H]1CN(CC(=O)Nc2ccc3c(c2)Cc2cccc(-c4cc(=O)cc(N5CCOCC5)o4)c2S3)C[C@H](C)O1 | -0.284
* CCOc1cc2ncc(C#N)c(Nc3ccc(OCc4ccccn4)c(Cl)c3)c2cc1NC(=O)/C=C/CN(C)C | -0.098
* Cn1cnc([N+](=O)[O-])c1Sc1ncnc2[nH]cnc12 | -0.259
* O=C(O)c1ccc(-c2c[nH]c3ncc(-c4ccccc4)cc23)cc1C1CCCC1 | -0.364
* O=C(Nc1ccc(OC(F)(F)F)cc1)c1sccc1NCc1ccnc2ccccc12 | -0.386
* Cc1cccc(-c2nn3c(c2-c2ccnc4ccc(C(N)=O)cc24)CCC3)n1 | -0.16
* CC(C)OC(=O)C1=CN(C(=O)c2ccc(F)c(F)c2)CC(C)(C)c2c1[nH]c1ccccc21 | -0.145
* C=CCc1cccc(/C=N/NC(=O)CN2CCN(Cc3ccccc3)CC2)c1O | -0.0824
* CC(C=CC(=O)NO)=CC(C)C(=O)c1ccc(N(C)C)cc1 (stereo not given) | 0.223
* CC(C)C[C@H](NC(=O)[C@@H](O)[C@H](N)Cc1ccccc1)C(=O)O | 0.00426
* CN(C)CCOc1ccc(/C(=C(/CCCl)c2ccccc2)c2ccccc2)cc1 [Toremifene Citrate (Fareston, Acapodene)] | 0.00246
* COc1cc2nc(N3CCCN(C)CC3)nc(NC3CCN(Cc4ccccc4)CC3)c2cc1OC | 0.165
* CN1C(=O)C(Cc2c[nH]c3ccccc23)NC1=S (stereo not given) | -0.408
* CO[C@H]1C[C@@H]2CC[C@@H](C)[C@@](O)(O2)C(=O)C(=O)N2CCCC[C@H]2C(=O)O[C@H]([C@H](C)C[C@@H]2CC[C@@H](OCCO)[C@H](OC)C2)CC(=O)[C@H](C)/C=C(\C)[C@@H](O)[C@@H](OC)C(=O)[C@H](C)C[C@H](C)/C=C/C=C/C=C/1C [Everolimus (RAD001)] | 0.827
* C[N+](C)([O-])CCNc1ccc(NCC[N+](C)(C)[O-])c2c1C(=O)c1c(O)ccc(O)c1C2=O [Banoxantrone dihydrochloride] | -0.557
* C=CCn1c(=O)c2cnc(Nc3ccc(N4CCN(C)CC4)cc3)nc2n1-c1cccc(C(C)(C)O)n1 | -0.45
* O=c1cc(N2CCOCC2)oc2c(-c3cccc4c3sc3ccccc34)cccc12 | -0.261
* Cc1ccc(F)c(NC(=O)Nc2ccc(-c3cccc4[nH]nc(N)c34)cc2)c1 | -0.0495
* Oc1ccc(Nc2nc(-c3ccc(Cl)cc3)cs2)cc1 | -0.403
* CC[C@@H]1C(=O)N(C)c2cnc(Nc3ccc(C(=O)N[C@H]4CC[C@H](N5CCN(CC6CC6)CC5)CC4)cc3OC)nc2N1C(C)C | 0.969
* O=C(O)C(Cc1c[nH]c2ccccc12)N1C(=O)c2ccccc2C1=O (stereo not given) | -0.253
* CCN(CC)C(=S)SSC(=S)N(CC)CC | -0.203
